# target-or-test-system: Norepinephrine transporter (Rattus norvegicus)
# Sequence (Q9WTR4 whole entry): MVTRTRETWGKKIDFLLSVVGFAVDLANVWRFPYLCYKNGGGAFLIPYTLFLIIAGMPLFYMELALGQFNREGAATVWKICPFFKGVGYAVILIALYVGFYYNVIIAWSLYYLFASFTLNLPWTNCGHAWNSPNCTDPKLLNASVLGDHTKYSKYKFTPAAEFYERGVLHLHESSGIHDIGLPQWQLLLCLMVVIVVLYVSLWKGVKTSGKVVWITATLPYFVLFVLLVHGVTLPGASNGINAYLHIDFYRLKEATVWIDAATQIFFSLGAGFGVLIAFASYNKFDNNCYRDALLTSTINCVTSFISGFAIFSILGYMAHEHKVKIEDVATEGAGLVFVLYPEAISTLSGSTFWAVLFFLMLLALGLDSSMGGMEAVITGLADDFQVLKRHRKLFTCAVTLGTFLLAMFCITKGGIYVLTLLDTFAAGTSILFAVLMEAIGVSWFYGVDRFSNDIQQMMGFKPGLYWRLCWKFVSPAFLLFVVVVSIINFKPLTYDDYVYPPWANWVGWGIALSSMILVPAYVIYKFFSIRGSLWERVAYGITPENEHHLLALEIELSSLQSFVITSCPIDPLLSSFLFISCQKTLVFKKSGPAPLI
# measurement-notes: Inhibition of [3H]noradrenaline uptake in Sprague-Dawley rat brain synaptosomes
measure-name: IC50 (nM)
Express it in nM; write the number only.

Entry Cc1noc2c(-c3ccccc3)nn(CCCN3CCN(c4cccc(Cl)c4)CC3)c(=O)c12 ; IC50 = 130

---

# System: Mus musculus
# measurement-notes: Antinociceptive activity in Swiss Albino mouse at 20 mg/kg, po by writhing test measured as number of writhes in presence of yohimbine
# Type: functional
Friendly reminder: Activity below 40 is t, at or above is f.

Qu. Take the molecule Cc1noc2c(-c3ccccc3)nn(CCC(=O)N3CCN(c4ccc(Cl)cc4)CC3)c(=O)c12 and say whether its Activity is less than 40.
Ans. f
